I'd appreciate it if you could supply IC50 values for the items below.
Molecular target: HCV NS3/4A protease complex (BMS strain, genotype 1a) (Hepatitis C virus genotype 1a, UniProt P27958, C1454S)
Construct: DNA encoding the recombinant HCV NS3/4A protease complex (amino acids 1027 to 1711) for these strains; inferred from the pET21b vector and Ni-NTA purification; made in house; host or cells: Escherichia coli BL21 (DE3), pET21b
Sequence (P27958 1658-1714, looked up, stated change not applied): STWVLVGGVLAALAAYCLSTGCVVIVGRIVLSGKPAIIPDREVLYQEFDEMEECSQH
Sequence (P27958 1027-1657, looked up, stated change not applied): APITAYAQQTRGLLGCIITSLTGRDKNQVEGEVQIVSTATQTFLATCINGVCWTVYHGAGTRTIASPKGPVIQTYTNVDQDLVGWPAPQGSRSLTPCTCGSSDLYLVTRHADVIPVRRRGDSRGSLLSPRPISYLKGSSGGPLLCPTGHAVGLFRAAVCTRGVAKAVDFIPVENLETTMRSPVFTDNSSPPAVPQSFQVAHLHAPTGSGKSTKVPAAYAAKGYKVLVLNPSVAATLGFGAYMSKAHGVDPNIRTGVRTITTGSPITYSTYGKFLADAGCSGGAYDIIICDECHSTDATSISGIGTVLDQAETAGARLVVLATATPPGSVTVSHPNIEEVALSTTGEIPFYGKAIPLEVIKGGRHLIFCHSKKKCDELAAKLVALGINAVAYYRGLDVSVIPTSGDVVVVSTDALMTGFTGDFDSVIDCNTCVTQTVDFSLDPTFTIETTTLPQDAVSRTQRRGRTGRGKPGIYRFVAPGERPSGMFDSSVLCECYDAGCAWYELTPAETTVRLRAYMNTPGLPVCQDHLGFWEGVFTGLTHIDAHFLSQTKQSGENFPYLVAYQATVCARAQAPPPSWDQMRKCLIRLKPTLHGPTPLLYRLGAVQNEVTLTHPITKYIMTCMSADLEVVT
Experiment: Recombinant HCV NS3/4A protease complex FRET peptide assay, BMS strain
Assay type: biochemical
Settings: IC50 range, NS3/4A BMS Strain
Description: The purpose of this in vitro assay was to measure the inhibition of HCV NS3 protease complexes, derived from the BMS, H77C or J416S strains, as described below, by compounds of the present invention. Serum from an HCV-infected patient was obtained from Dr. T. Wright, San Francisco Hospital. […]

1) C=C[C@@H]1C[C@]1(NC(=O)[C@@H]1C[C@@H](Oc2cc(-c3ccccc3)nc3cc(OC)ccc23)CN1C(=O)[C@@H](NC(=O)OC(C)(C)C)C(C)C)C(=O)NS(=O)(=O)C1(CCOC)CC1 : < 50 nM

Shifting focus to the molecule that follows.
// query Name the reported IC50 value associated with the molecule C=C[C@@H]1C[C@]1(NC(=O)C1C[C@@H](Oc2cc(-c3ccccc3)nc3cc(OC)ccc23)CN1C(=O)[C@@H](NC(=O)[C@@H](OC)c1ccccc1)C(C)(C)C)C(=O)NS(=O)(=O)C1(CC2CC2)CC1 (some centres unmarked)
// result < 50 nM

Data origin, for the record: patent US6878722B2
